Tested on: NCI-H226
Assay: NCI tumour cell line growth inhibition, 48 h
The source made the active and inactive calls. Cut-off read from the data, not from the text of the source: active = GI50 up to about 1.1 µM and inactive = higher.
Readings of GI50 for the listed molecules

# Molecule, GI50
data = [
    ("CCCCCCCCCCCC(=O)OC[C@H](C[As](=O)(O)O)OC(=O)CCCCCCCCCCC", "14.8 µM (inactive)"),
    ("CC(C)S(=O)(=O)ON1C(=O)c2ccc(N(C)C)cc2C1=O", "25.2 µM (inactive)"),
    ("O=[N+]([O-])c1cccc(-c2oc(/C=N/c3ccccc3)c([N+](=O)[O-])c2-c2cccc([N+](=O)[O-])c2)c1", "> 100 µM (inactive)"),
    ("CC(=O)O[C@@H]1C(C2CCCCC2)C=[N+]([O-])O[C@@H]1OC1CCCC1(c1ccccc1)c1ccccc1 (stereo partly specified)", "16.6 µM (inactive)"),
    ("NC(=O)N/N=C1\\CC2C3CC4C2C4C13 (stereo unspecified)", "> 100 µM (inactive)"),
    ("NC(Cc1cccnn1)C(=O)O (stereo unspecified)", "> 100 µM (inactive)"),
]
